target: Placenta growth factor (Homo sapiens); assay: Inhibition of human PlGF-1-VEGFR-1 interaction by ELISA
Sequence (P49763 whole entry): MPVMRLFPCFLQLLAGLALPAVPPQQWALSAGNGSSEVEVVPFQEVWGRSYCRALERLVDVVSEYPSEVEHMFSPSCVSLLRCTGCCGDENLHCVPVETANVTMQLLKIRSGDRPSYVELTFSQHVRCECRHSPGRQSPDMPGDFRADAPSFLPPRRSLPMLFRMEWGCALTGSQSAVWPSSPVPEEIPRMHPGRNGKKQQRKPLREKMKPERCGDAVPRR
Bridge positions count the residues as written; N and C are the ends. Square brackets hold non-standard residues; d marks the D form. Peptide text beside a SMILES is read from it. Aad = N[C@@H](CCCC(=O)O)C(=O)O
Parameter: pIC50. Scope: all listed entries.
Scale explanation: pIC50 corresponds to minus log10 of a concentration expressed in moles per litre.

Known pIC50 results, listed for orientation:
| molecule | numeric_result |
| --- | --- |
| CC[C@H](C)[C@H](NC(=O)[C@H](C)NC(=O)[C@H](CC(C)C)NC(=O)[C@@H]1CSSC[C@H](NC(=O)[C@@H](NC(=O)[C@H](CC(=O)O)NC(=O)[C@H](CC(C)C)NC(C)=O)C(C)C)C(=O)N[C@@H](CC(C)C)C(=O)N[C@@H](Cc2c[nH]c3ccccc23)C(=O)N[C@@H](C(C)C)C(=O)N[C@@H](CO)C(=O)N[C@@H](CC(C)C)C(=O)N2CCC[C@H]2C(=O)N[C@@H](Cc2cnc[nH]2)C(=O)N1)C(N)=O (Ac-LDVCLWVSLPHCLAI-NH2; disulfide 4-12) | 4.00 |
| CSCC[C@H](NC(=O)[C@H](CCCCN)NC(=O)[C@@H]1CSSC[C@H](NC(=O)[C@@H](NC(=O)[C@H](CC(=O)O)NC(=O)[C@H](Cc2ccccc2)NC(C)=O)C(C)C)C(=O)N[C@@H](CC(N)=O)C(=O)N[C@@H](Cc2c[nH]c3ccccc23)C(=O)N[C@@H](C(C)C)C(=O)N[C@@H]([C@@H](C)O)C(=O)N[C@@H](CC(C)C)C(=O)N2CCC[C@H]2C(=O)N[C@@H](Cc2cnc[nH]2)C(=O)N1)C(=O)N[C@@H](CCCC(N)=O)C(N)=O (Ac-FDVCNWVTLPHCKM[Aad](NH2)-NH2; disulfide 4-12) | 6.00 |

Looking up CC[C@H](C)[C@H](NC(=O)[C@H](CC(=O)O)NC(=O)[C@H](Cc1ccc(O)cc1)NC(C)=O)C(=O)N[C@H]1CSSC[C@@H](C(=O)N[C@@H](CCCCN)C(=O)N[C@@H](C)C(=O)N[C@H](C(N)=O)C(C)C)NC(=O)[C@H](Cc2cnc[nH]2)NC(=O)[C@@H]2CCCN2C(=O)[C@H](CC(C)C)NC(=O)[C@H](CCCNC(=N)N)NC(=O)[C@H]([C@@H](C)CC)NC(=O)[C@H](Cc2ccc(O)cc2)NC(=O)[C@H](CCCCN)NC1=O (Ac-YDICKYIRLPHCKAV-NH2; disulfide 4-12) , I see its pIC50 listed as 5.05

Sure, the documented pIC50 for CC[C@H](C)[C@H](NC(=O)[C@@H]1CSSC[C@H](NC(=O)[C@@H](NC(=O)[C@H](CCC(N)=O)NC(=O)[C@H](Cc2c[nH]c3ccccc23)NC(C)=O)[C@@H](C)CC)C(=O)N[C@@H](CC(=O)O)C(=O)N[C@@H]([C@@H](C)CC)C(=O)N[C@@H](CC(C)C)C(=O)N[C@@H]([C@@H](C)O)C(=O)N[C@@H](CC(C)C)C(=O)N2CCC[C@H]2C(=O)N[C@@H](Cc2cnc[nH]2)C(=O)N1)C(=O)N[C@@H](Cc1ccccc1)C(=O)N[C@@H](CC(N)=O)C(N)=O (Ac-WQICDILTLPHCIFN-NH2; disulfide 4-12) is 4.00

// field: pIC50; key: CSCC[C@H](NC(=O)[C@@H](NC(=O)[C@H](CCCCN)NC(=O)[C@@H]1CSSC[C@H](NC(=O)[C@@H](NC(=O)[C@H](CC(=O)O)NC(=O)[C@H](Cc2ccccc2)NC(C)=O)C(C)C)C(=O)N[C@@H](CCCCN)C(=O)N[C@@H](Cc2c[nH]c3ccccc23)C(=O)N[C@@H](C(C)C)C(=O)NCC(=O)N[C@@H](CC(C)C)C(=O)N2CCC[C@H]2C(=O)N[C@@H](Cc2cnc[nH]2)C(=O)N1)C(C)C)C(N)=O (Ac-FDVCKWVGLPHCKVM-NH2; disulfide 4-12) ; value = 5.22
